System: MCP-1
Experiment: In vivo tolerability by IV: serum MCP-1 by Luminex
Set-up: species or system C57BL/6J mice
Conditions: Formulation No. 001, RNA No. 331, male C57BL/6J mice, 1.0 mg*kg/1 intravenous, 2 hours post injection
Parameter MCP-1 at 2 h: see the listing below.
Entry rule: numbers only, all in pg/mL.

Record excerpt, results attached:
>  <compound>
CCCCC/C=C\C/C=C\CCCCCCCCOC(=O)NC(COC(=O)NCCN1CCCCCC1)C(=O)OCCCCCC(=O)OCC(CCCCCCCC)CCCCCCCCCC (stereo not drawn)

>  <value>
2000

$$$$
>  <compound>
CCCCC/C=C\CCOC(=O)CCCCCOC(=O)C(COC(=O)NCCN1CCCCC1)NC(=O)OCCCCCCCCOC(=O)C(CCCCCC)CCCCCCCC (stereo not drawn)

>  <value>
4780

$$$$

Measured MCP-1 at 2 h (MCP-1), entry CCCCC/C=C\C/C=C\CCCCCCCCOC(=O)C(COC(=O)NCCN1CCCCC1)NC(=O)OCCCCCCCCOC(=O)C(CCCCCC)CCCCCCCC (stereo not drawn) : 880
